assay: yeast display, Sf9 membrane polyspecificity reagent, FACS + sequencing; frameworks hold sequencing errors
metric-name: polyreactivity (PSR sort gate)

[[record]]
sequence_data = "QVQLVESGGGLDQAGGSLRLSCAASGSTFGVYAMGWYRQAPGKERELVAAISSSTGSTYYADSVKGRFTISRDNAKNTVYLQMNSLKPEDTAVYYCAAEYDGPYYSFYPEQRYYWGQGTQVTVSS"
recorded_measurement = "low polyreactivity"

[[record]]
sequence_data = "QVQLVESGGGLVQAGGSLRLSCAPSGGTFYANDMGWYRQAPGKERELVATISKSGGSTYYAESVKRPFTISRDNAKNTVYCQMNSLKPEVTAVYYCAARTTYLYGMYYWGQGTQVTVSS"
recorded_measurement = "low polyreactivity"

[[record]]
sequence_data = "QVQLVESGGGLVQAGGSLRLSCAASGSTFWLYAMGWYRQAPGKERELVAAIRSGDRTNYADSVKGRFTISRDNAKNTVYLQMNSLKPEDTAVYYCAAVAYLNWTPHYYWGQGTQVTVSS"
recorded_measurement = "low polyreactivity"

[[record]]
sequence_data = "QVQLVESGGGLVQAGGSLRLSCAASGSTIFGNVMGWYRQAPGKERELVAAISKTGGNTYYADSVKGRFTISRDNAKNTVYLQMNSLKPEDTAVYYCNALRGDWRDMGYWGQGTQVTVSS"
recorded_measurement = "high polyreactivity"

[[record]]
sequence_data = "QVQLVDSAGGLVHAGGSLRLSCAASGLTFYSNTMGWYRPPPGKERELVAGISWGGDTTYYADSVKGRFTISRDNAKNTVYLQMNSLKPEDTAVYYCAADRSYWRHRYSYDYWGQGTQVTVSS"
recorded_measurement = "low polyreactivity"


Enquiry: Please give the documented polyreactivity (PSR sort gate) of QVQLVESGGGLVQAGGSLRLSCAASGGTFSTSAMGWYRQAPGKERELVAAISLSGVRTYYADSVKGRFTISRDNAKNTVYLQMNSLKAEVTAVDYCATRPYSPWRLYYWGQGTQVTGSS
Return: high polyreactivity

Enquiry: Give recorded polyreactivity (PSR sort gate). QVQLVESGGGLVQAGGSLRLSCAASGSTFVVNTMGWYRQAPGKERELVAAITRRTTSTYYADSVKGRFTISRDNAKNTVYLQMNSLKPEDTAVYYCAAERRHYSTTYYYWGQGTQVTVSS
Return: high polyreactivity

Enquiry: Complete the entry with polyreactivity (PSR sort gate) for QFQLVESGGGLDQAGGSLRLSCAASGSTSRKYTMGWYRQAPGTDRELVATISWSGGSTNYADSVKGRFTISRDNAKNTVYLQMNSLKPEDTAVYYCNAYVSPRYRGSRYYYWGQGTQVTVSS
Return: high polyreactivity

Enquiry: Name the recorded polyreactivity (PSR sort gate) of the sequence listed here: QVQLVESGGGLVQAGGSLGLSCAASGITFYTYPMGLYRQAPGKERELVAAISRRGGSTYYADSVKGRFTISRDNAKNTVYLHLNSLKPEDTAVYYCNAVADCYSGFDGYYYWGQGTQVTVSS
Return: high polyreactivity

Enquiry: Give reported polyreactivity (PSR sort gate) value for QVQLVESGGGLVQAGGSLRLSCAASGSIFYFNDMGWYRQAPGKEREFVARITRSGSSTSYADSVKGRFTISRDNAKNTVYLQMNSLKPEDTAVYYCAARYRRYSTSRYYYWGQGTQVTVSS
Return: high polyreactivity

----------
experiment: yeast display, Sf9 membrane polyspecificity reagent, FACS + sequencing; frameworks hold sequencing errors
metric-name: polyreactivity (PSR sort gate)

Illustrative cases are given below, each with its answer.
[[record]]
sequence_data = "QVQLVESGGGLVQAGGSLRLSCADSGSTSYDYAMGWYRQAPGKERELVAAISGSSSTTYYADSVKGRFTISRDNAKNTVYLQMNSLKPEDTAVYYCNAVTTTGSGYGYWGQGTQVTVSS"
recorded_measurement = "low polyreactivity"

[[record]]
sequence_data = "QVQLVESGGGLVQAGGSLRLSCAASGSIFYRYAMGWYRQAPGKVRELVAAISSGSSTHYADSVKGRFTISRDNAKNTVYLQMNSLKPEDTAVYYCAARYRAYTSTRRFDYWGQGTQVTVSS"
recorded_measurement = "high polyreactivity"

[[record]]
sequence_data = "QVQLVESGGGLVQAGGSLRLSCAASGFTFTENVMGWYRQAPGKEREFVAAITYIGGRTYYADSVKGRFTISRDNAKNTVYLQMNSLKPEDTAVYYCAADWAYYVASYLYYTFAYWGQGTQVTVSS"
recorded_measurement = "low polyreactivity"

[[record]]
sequence_data = "QVQLVESGGGLVQAGGSLRLSCAASGRIFRWYTMGWYRQAPGKEREFVAAITWSDTSTSYADSVKGPFTISRDNAKNTVYLQMNSLKPEDTAVYYCAAPTHLHGHGNQNEFYYWGQGTQVTVSS"
recorded_measurement = "low polyreactivity"

[[record]]
sequence_data = "QFQRVDSGGGLVQAGGSLRLSCAASGSTLAVNAMGWYRQAHGKERELVAAITRSGGRTYYADSLKWRFTISRDNAKNTVYLQMNSLKPEDTAVYYFGAKWYYPFIPKRTTRYGFDYWGHGTQVTVSS"
recorded_measurement = "high polyreactivity"


Enquiry: Give me measured polyreactivity (PSR sort gate), please, for this sequence: QVQLVESGGGLVQAGGSLRLSCAASGSIFYYNAMGWYRQAPGKERELVAAISSDGGTYYADSVKGRFTISRDNAKNTVYLQMNSLKPEDTAVYYCNAEVFWWDQWYDYWGQGTQVTVSS
Return: high polyreactivity

Enquiry: Indicate the recorded polyreactivity (PSR sort gate) value for this sequence: QVQLVESGGGLVQAGGSLRLSCAASGFTFLTYAMGWYRQAPGKERELVAAINNSGGRTYYADSVKGRFTISRDNAKNTVYLQMNSLKPEDTAVYYCAADYLRGKHRYGYWGQGTQVTVSS
Return: high polyreactivity

Enquiry: // fetch polyreactivity (PSR sort gate) given entry QVQLVESGGGLVQAGGSLLLSCAASGFTFSYYAMGWYRQAPGKERDLVAAISWDGDSTYYADSVKGRFTISRDNAKNTVYLQMNSLKPEDTAVYYSAAEFSYYWDGYDYWGQGTQVTVSS
Return: high polyreactivity
